All figures here come from ChEMBL document CHEMBL4024710.

- system.name: Steroid 17-alpha-hydroxylase/17,20 lyase (Homo sapiens, UniProt P05093)
- Sequence (P05093 whole entry): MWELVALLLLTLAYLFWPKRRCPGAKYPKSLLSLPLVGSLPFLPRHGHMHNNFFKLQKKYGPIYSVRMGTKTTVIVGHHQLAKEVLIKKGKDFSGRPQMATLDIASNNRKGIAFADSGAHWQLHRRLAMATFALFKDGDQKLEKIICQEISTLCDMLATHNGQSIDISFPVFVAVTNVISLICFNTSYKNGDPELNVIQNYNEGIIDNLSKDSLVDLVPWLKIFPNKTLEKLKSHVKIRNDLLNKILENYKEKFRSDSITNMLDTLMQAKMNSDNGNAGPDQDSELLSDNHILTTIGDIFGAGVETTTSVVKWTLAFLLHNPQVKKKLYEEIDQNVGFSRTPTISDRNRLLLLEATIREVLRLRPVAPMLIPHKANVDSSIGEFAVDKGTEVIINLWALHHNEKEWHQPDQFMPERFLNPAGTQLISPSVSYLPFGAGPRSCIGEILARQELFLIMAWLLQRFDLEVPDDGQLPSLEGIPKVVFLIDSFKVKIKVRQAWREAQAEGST
- procedure.text: Inhibition of recombinant human CYP17 expressed in human A549 cell membranes using 17-alpha hydroxyprogesterone as substrate and NADPH as cofactor pretreated for 5 mins followed by substrate and cofactor addition after 60 mins by LC/MS analysis
pIC50: recorded values
Please keep in mind that pIC50 is minus log10 of the molar concentration; only the number is needed.

Some solved entries appear below for comparison.
[
  {
    "smiles.string": "Fc1ccc2sc3c(c2c1)CCN(Cc1c[nH]cn1)C3",
    "pIC50": 7.61
  },
  {
    "smiles.string": "Fc1cncc(CN2CCc3c(sc4ccc(F)cc34)C2)c1",
    "pIC50": 7.34
  },
  {
    "smiles.string": "Cc1ccncc1CN1CCc2c(sc3ccc(F)cc23)C1",
    "pIC50": 7.70
  },
  {
    "smiles.string": "Oc1ccc2sc3c(c2c1)CCN(Cc1cccnc1)C3",
    "pIC50": 7.63
  },
  {
    "smiles.string": "Fc1ccc2sc3c(c2c1)CCN(Cc1cccnc1)C3",
    "pIC50": 7.54
  }
]

Now, please, on to the next compound.
I looked up COc1cncc(CN2CCc3c(sc4ccc(F)cc34)C2)c1 and its pIC50 for Steroid 17-alpha-hydroxylase/17,20 lyase (Homo sapiens, UniProt P05093) was 7.35
